TEST_SYSTEM: Hexokinase HKDC1 (Homo sapiens)
ASSAY_TEXT: HKDC1 hexokinase inhibitors, primary screen, biochemical, fluorescence, uHTS (AID 493160);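 also: plate controls were DMSO wells with enzyme for no effect and DMSO wells lacking enzyme for full effect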
EXPERIMENTAL_CONDITIONS: recombinant HKDC1, G6PDH/diaphorase resazurin coupled fluorescence; at 20 µM; hits give high values
The campaign covered roughly 340,000 compounds. About 540 (0.16%) were called active. Shown is part of a subset that was picked to be rich in actives.
Each entry below lists one item and its recorded inhibition value.
MEASURED_METRIC: inhibition (%)

{"COMPOUND": "O=S(=O)(Nc1ccc(O)c2ccccc12)c1ccc(OC(F)(F)F)cc1", "READOUT_NUMBER": 52}
{"COMPOUND": "C=C(C)c1cccc(C(C)(C)NC(=O)NCCN(CC)CC)c1", "READOUT_NUMBER": 13}
{"COMPOUND": "COc1ccc(CN2CC(C(=O)NCCc3ccc(Cl)cc3)CC2=O)cc1 (stereo not given)", "READOUT_NUMBER": -3.16}
{"COMPOUND": "COCCN(C(=O)CSCc1ccc(C)cc1)c1c(N)n(CC(C)C)c(=O)[nH]c1=O", "READOUT_NUMBER": -4.58}
{"COMPOUND": "CCN(Cc1ccccc1)S(=O)(=O)c1cc2c3c(c1)CCN3C(=O)CC2", "READOUT_NUMBER": 4.66}
{"COMPOUND": "COc1ccc(NC(=O)CCC(=O)Nc2cc(OC)c(NC(=O)c3ccco3)cc2OC)c(OC)c1", "READOUT_NUMBER": 1.97}
{"COMPOUND": "O=C(CSc1ccc(-c2ccco2)nn1)NCc1ccc2c(c1)OCO2", "READOUT_NUMBER": -3.81}
{"COMPOUND": "Cc1nn(C)c(C)c1NS(=O)(=O)c1ccc(OC(F)(F)F)cc1", "READOUT_NUMBER": -3.33}
{"COMPOUND": "O=C1COc2ccc(S(=O)(=O)Nc3ccc(OC(F)(F)F)cc3)cc2N1", "READOUT_NUMBER": 2.53}
{"COMPOUND": "COc1ccc(C(=O)COC(=O)Cn2cnc3c2c(=O)n(C)c(=O)n3C)c(OC)c1", "READOUT_NUMBER": -0.76}

###

TEST_SYSTEM: Hexokinase HKDC1 (Homo sapiens) (UniProt Q2TB90)
Sequence (Q2TB90 whole entry, looked up): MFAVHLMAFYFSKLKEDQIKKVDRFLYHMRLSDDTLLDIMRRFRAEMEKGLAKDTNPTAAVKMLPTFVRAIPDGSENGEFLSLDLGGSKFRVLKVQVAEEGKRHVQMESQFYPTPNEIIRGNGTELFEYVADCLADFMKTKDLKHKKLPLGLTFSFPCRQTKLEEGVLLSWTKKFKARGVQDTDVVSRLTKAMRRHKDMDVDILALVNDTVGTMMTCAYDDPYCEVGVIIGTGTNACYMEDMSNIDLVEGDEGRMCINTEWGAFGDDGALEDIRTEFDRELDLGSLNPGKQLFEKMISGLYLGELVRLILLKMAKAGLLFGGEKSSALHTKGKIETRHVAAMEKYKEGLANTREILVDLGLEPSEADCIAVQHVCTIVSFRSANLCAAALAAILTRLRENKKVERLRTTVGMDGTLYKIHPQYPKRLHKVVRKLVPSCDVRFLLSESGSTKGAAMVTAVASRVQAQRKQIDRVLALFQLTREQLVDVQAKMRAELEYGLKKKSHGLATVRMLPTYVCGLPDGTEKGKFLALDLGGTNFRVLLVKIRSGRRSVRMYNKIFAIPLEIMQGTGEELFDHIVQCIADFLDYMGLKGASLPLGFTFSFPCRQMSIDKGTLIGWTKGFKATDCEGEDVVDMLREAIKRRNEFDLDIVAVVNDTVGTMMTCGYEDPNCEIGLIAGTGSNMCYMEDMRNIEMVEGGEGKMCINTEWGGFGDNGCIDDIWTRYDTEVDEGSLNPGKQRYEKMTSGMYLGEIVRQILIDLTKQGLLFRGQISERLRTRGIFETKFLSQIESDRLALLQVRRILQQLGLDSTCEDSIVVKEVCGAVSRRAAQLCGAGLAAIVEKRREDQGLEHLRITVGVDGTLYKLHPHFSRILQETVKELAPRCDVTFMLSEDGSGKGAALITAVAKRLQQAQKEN
ASSAY_TEXT: HKDC1 hexokinase inhibitors, primary screen, biochemical, fluorescence, uHTS (AID 493160)
EXPERIMENTAL_CONDITIONS: recombinant HKDC1, G6PDH/diaphorase resazurin coupled fluorescence; at 20 µM; hits give high values
About 540 (0.16%) of roughly 340,000 compounds were called active. For the sample, actives were picked, then their nearest neighbours and some compounds at random.
MEASURED_METRIC: inhibition (%)

{"COMPOUND": "COc1ccc(O)c(C(=O)c2cnc3onc(C(C)C)c3c2)c1", "MEASURED_METRIC": "inhibition", "READOUT_NUMBER": -4.62}
{"COMPOUND": "CC1(C)CC(=O)C=C(c2ccc3ncccc3c2)C1", "MEASURED_METRIC": "inhibition", "READOUT_NUMBER": 11.6}
{"COMPOUND": "CCN(C[C@H]1N[C@@](Cc2ccccc2)(C(=O)OC)[C@H]2C(=O)N(Cc3ccccc3)C(=O)[C@@H]12)C(=O)c1ccc(C)cc1", "MEASURED_METRIC": "inhibition", "READOUT_NUMBER": -6.61}
{"COMPOUND": "O=C(CC1NCCc2ccccc21)Nc1cccc(Cl)c1 (stereo unspecified)", "MEASURED_METRIC": "inhibition", "READOUT_NUMBER": 8.29}
{"COMPOUND": "Cc1ccsc1C(=O)OCC(=O)c1cc(C)n(CC2CCCO2)c1C (stereo unspecified)", "MEASURED_METRIC": "inhibition", "READOUT_NUMBER": 1.95}
{"COMPOUND": "COc1cc(OC)cc(C(=O)NCC(=O)N2CCCCCCC2)c1", "MEASURED_METRIC": "inhibition", "READOUT_NUMBER": -3.62}

###

Each entry below lists one item and its recorded inhibition value.
TEST_SYSTEM: Hexokinase HKDC1 (Homo sapiens)
ASSAY_TEXT: HKDC1 hexokinase inhibitors, primary screen, biochemical, fluorescence, uHTS (AID 493160);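 also: plate controls were DMSO wells with enzyme for no effect and DMSO wells lacking enzyme for full effect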
EXPERIMENTAL_CONDITIONS: recombinant HKDC1, G6PDH/diaphorase resazurin coupled fluorescence; at 20 µM; hits give high values
Screen size: about 340,000 compounds; about 540 (0.16%) were called active. This is one part of a sample in which actives are shown more often than they occur.

{"COMPOUND": "CN(C(=O)CSc1cccc[n+]1[O-])C1CCCCC1", "inhibition [%]": -5.14}
{"COMPOUND": "Cc1cc(Cl)c2oc(C(=O)N3CCC(O)(c4ccccc4)CC3)c(C)c2c1", "inhibition [%]": -1.23}
{"COMPOUND": "CC(NC(=O)c1ccccc1)C(=O)Nc1ccccc1 (stereo not given)", "inhibition [%]": -6.92}
{"COMPOUND": "CCOc1cc(NC(=S)NCCCN(C)C)c(OCC)cc1NC(=O)C1CC1", "inhibition [%]": -8.33}
{"COMPOUND": "CCC(C)c1ccc(O)c(/C=N/O)c1 (stereo not given)", "inhibition [%]": -1.01}
{"COMPOUND": "COc1ccc(Nc2ncc(C(=O)N3CCN(c4ccccc4OC)CC3)c3ccccc23)cc1", "inhibition [%]": 3.14}
{"COMPOUND": "Cc1noc(C)c1S(=O)(=O)N(C)C[C@H]1Oc2ccc(NC(=O)C3CC3)cc2C(=O)N([C@H](C)CO)C[C@@H]1C", "inhibition [%]": 3.28}
{"COMPOUND": "CCOC(=O)c1ccc(NC(=O)c2nc[nH]c2C(=O)N[C@@H](CCCCNC(=O)OC(C)(C)C)C(=O)OC(C)(C)C)cc1", "inhibition [%]": 3.03}
{"COMPOUND": "Cc1cc(Cl)ccc1NC(=S)N1CCC(C(N)=O)(N2CCCCC2)CC1", "inhibition [%]": -7.07}
{"COMPOUND": "CCN(CC)C(=O)CSc1nc2ccccc2n1CC(=O)N1CCN(c2ccccc2OC)CC1", "inhibition [%]": -2.34}

###

TEST_SYSTEM: Hexokinase HKDC1 (Homo sapiens)
ASSAY_TEXT: HKDC1 hexokinase inhibitors, primary screen, biochemical, fluorescence, uHTS (AID 493160);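 also: plate controls were DMSO wells with enzyme for no effect and DMSO wells lacking enzyme for full effect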
EXPERIMENTAL_CONDITIONS: recombinant HKDC1, G6PDH/diaphorase resazurin coupled fluorescence; at 20 µM
Among all 340,000 compounds or so, about 540 (0.16%) were called active.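 How the source made its calls: active means inhibition above about 35% when tested at 20 µM (limit read from the data); inactive means the rest.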 For the sample, actives were picked, then their nearest neighbours and some compounds at random.
Outcomes: active, inactive

{"COMPOUND": "O=C(COC(=O)Cn1cnc2ccccc2c1=O)NCc1ccccc1Cl", "CAT": "inactive"}
{"COMPOUND": "CC(C)C[C@H](NC(=O)N1CC(=O)Nc2ccccc21)C(=O)N[C@H](Cc1ccccc1)C(=O)O", "CAT": "inactive"}
{"COMPOUND": "Cc1cc(C(=O)COC(=O)CNC(=O)c2ccc(F)cc2)c(C)n1Cc1ccco1", "CAT": "inactive"}
{"COMPOUND": "CCC(C)NC(=O)c1cc(Cl)ccc1OC (stereo unspecified)", "CAT": "inactive"}
{"COMPOUND": "CCOc1ccc(N2C(=O)CN(c3cccc4ccccc34)C2=S)cc1", "CAT": "inactive"}
{"COMPOUND": "O=S(=O)(NN=C1CCCCCCC1)c1ccc(Br)cc1", "CAT": "inactive"}
{"COMPOUND": "Cc1ccc(CNC(=O)CCNS(=O)(=O)c2cccc3nonc23)cc1", "CAT": "inactive"}
{"COMPOUND": "COc1ccc(CN(Cc2ccc(OC)cc2)C(=O)c2cccs2)cc1", "CAT": "inactive"}
{"COMPOUND": "COc1ccc(C(CCN(Cc2ccc(OC)c(OC)c2)C(=O)CCl)c2ccccc2)cc1 (stereo unspecified)", "CAT": "active"}
{"COMPOUND": "Cc1ccc(C(C)(C)C)c(OCCCCN2CCCC2)c1", "CAT": "inactive"}
{"COMPOUND": "CCCCn1c(N)c(N(CCOC)C(=O)COc2c(C)cccc2C)c(=O)[nH]c1=O", "CAT": "inactive"}

###

TEST_SYSTEM: Hexokinase HKDC1 (Homo sapiens) (UniProt Q2TB90)
ASSAY_TEXT: HKDC1 hexokinase inhibitors, primary screen, biochemical, fluorescence, uHTS (AID 493160);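 also: plate controls were DMSO wells with enzyme for no effect and DMSO wells lacking enzyme for full effect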
EXPERIMENTAL_CONDITIONS: recombinant HKDC1, G6PDH/diaphorase resazurin coupled fluorescence; at 20 µM; hits give high values
Screen size: about 340,000 compounds; about 540 (0.16%) were called active. Many of the other results were omitted from the sample, so actives are more common in it than they were.
Each entry below lists one item and its recorded inhibition value.

{"COMPOUND": "CCn1cc(C(=O)NCc2ccc3c(c2)OCO3)c2cc(OC)c(OC)cc2c1=O", "inhibition / %": 37.8}
{"COMPOUND": "COc1cc(/C=C/C(=O)OCC(=O)N2CCOCC2)ccc1OCC#N", "inhibition / %": -1.34}
{"COMPOUND": "Cc1cc2cc3c(N)[nH]nc3nc2cc1C", "inhibition / %": 1.11}
{"COMPOUND": "CCOC(=O)CSc1nc2ccc(C)cc2n2cnnc12", "inhibition / %": 53}
{"COMPOUND": "COc1cc(NC(=O)C2=C(C)OCCS2)c(Cl)cc1C(=O)NCCN1CCN(C)CC1", "inhibition / %": -3.87}
{"COMPOUND": "COc1ccc(N2CCN(C(=O)C3CCN(C(=O)c4ccccc4Cl)CC3)CC2)cc1", "inhibition / %": -1.69}
{"COMPOUND": "CC(Cc1cccs1)N(Cc1ccc(Cl)cc1)C(=O)c1ccncc1 (stereo not drawn)", "inhibition / %": 3.31}
{"COMPOUND": "Cc1c(-c2ccccc2)cn2c1-c1ccc(C)n1CC2", "inhibition / %": 1.47}
{"COMPOUND": "COc1ccc(C(C)C)cc1S(=O)(=O)Nc1ncn[nH]1", "inhibition / %": -3.49}
{"COMPOUND": "O=C(Cc1ccc(NC(=O)C2CCCN(C(=O)C3CCCCC3)C2)cc1)Nc1cccc(C(=O)N2CCCCC2)c1 (stereo not drawn)", "inhibition / %": -3.33}
{"COMPOUND": "Nc1ccc2nc3c(=O)[nH]c(=S)[nH]c3nc2c1", "inhibition / %": 69.9}
{"COMPOUND": "CC1CCCC(NC(=O)COC(=O)[C@@H]2CC(O)CN2S(=O)(=O)c2ccc3c(c2)OCCO3)C1C (stereo partly drawn)", "inhibition / %": -2.96}
{"COMPOUND": "C=CCN(Cc1nc(-c2cc(OC)c3c(c2)OCO3)oc1C)C1CCS(=O)(=O)C1 (stereo not drawn)", "inhibition / %": -3.24}
{"COMPOUND": "CCn1c(SCC(=O)Nc2cc(C)ccc2C)nnc1-c1cnccn1", "inhibition / %": 2.21}
{"COMPOUND": "CC(CNC(=O)c1ccc(N)cc1)NC(=O)c1ccc(N)cc1 (stereo not drawn)", "inhibition / %": -6.68}
{"COMPOUND": "Cc1cc(=O)[nH]c2nnnn12", "inhibition / %": 7.5}
{"COMPOUND": "CCC1SC2=NCCN2C1(O)c1ccc(Cl)cc1 (stereo not drawn)", "inhibition / %": 10.4}
{"COMPOUND": "COc1ccccc1N(C(=O)Cn1nnc2ccccc21)C(C(=O)NCc1ccco1)c1ccc(C)o1 (stereo not drawn)", "inhibition / %": -6.23}
{"COMPOUND": "CC(C)=CC(=O)Nc1nnc(-c2ccc(F)cc2)s1", "inhibition / %": 6.59}
{"COMPOUND": "COc1ccc(S(=O)(=O)N2CCCC2CNC(=O)C(=O)NC2CC2)cc1 (stereo not drawn)", "inhibition / %": 0.83}
{"COMPOUND": "C#CCOCCOCCOCCNc1nc(N2CCN(C(=O)C([C@@H](C)CC)n3cc(C(N)COC(=O)C(F)(F)F)nn3)CC2)nc(N2CCN(C(=O)[C@H](Cc3ccc(O)cc3)n3cc(C(N)[C@H](C)CC)nn3)CC2)n1 (stereo partly drawn)", "inhibition / %": 1.5}
{"COMPOUND": "Cc1nn(C)cc1S(=O)(=O)N1CCN(c2ccc(F)cc2)CC1", "inhibition / %": -0.86}
{"COMPOUND": "CCCCc1nc(SCC(=O)Nc2nnc(C(C)C)s2)n[nH]1", "inhibition / %": -4.74}
{"COMPOUND": "COc1ccc(OCCCC(=O)Oc2ccc(OC)cc2)cc1", "inhibition / %": -15}
{"COMPOUND": "CCn1cc(C(=O)N2CCN(Cc3ccc4c(c3)OCO4)CC2)c2cc(OC)c(OC)cc2c1=O", "inhibition / %": -2.84}
{"COMPOUND": "Cc1cc[n+](-c2[nH]c(=O)sc2/C=N/NC(=O)c2ccccc2[O-])cc1C", "inhibition / %": -1.94}
{"COMPOUND": "CCOc1ccccc1-c1nc(CN2CCC(C(=O)N3CCOCC3)CC2)c(C)o1", "inhibition / %": -3.93}
{"COMPOUND": "COc1ccc(-c2csc3ncnc(Oc4ccc5c(C)cc(=O)oc5c4)c23)cc1", "inhibition / %": 6.07}
{"COMPOUND": "COCCCNC(NC(=O)c1ccc(OC)cc1)C(Cl)(Cl)Cl (stereo not drawn)", "inhibition / %": -2.25}
{"COMPOUND": "Cc1cc(C)n(CCNC(=O)CC2C(=O)NCCN2Cc2ccc(C)o2)n1 (stereo not drawn)", "inhibition / %": -9.7}
{"COMPOUND": "Cc1ccc(O)c(NC(=O)c2cc(-c3ccco3)on2)c1", "inhibition / %": -2.87}
{"COMPOUND": "COc1cc(OC)c(C(=O)NCc2ccc3c(c2)OCO3)cc1OC", "inhibition / %": -0.69}
{"COMPOUND": "COc1ccc(CCNc2nc3ccc(C)cc3n3cnnc23)cc1OC", "inhibition / %": 8.2}
